- experimental.system: D(2) dopamine receptor (Homo sapiens, UniProt P14416)
- Sequence (P14416 whole entry): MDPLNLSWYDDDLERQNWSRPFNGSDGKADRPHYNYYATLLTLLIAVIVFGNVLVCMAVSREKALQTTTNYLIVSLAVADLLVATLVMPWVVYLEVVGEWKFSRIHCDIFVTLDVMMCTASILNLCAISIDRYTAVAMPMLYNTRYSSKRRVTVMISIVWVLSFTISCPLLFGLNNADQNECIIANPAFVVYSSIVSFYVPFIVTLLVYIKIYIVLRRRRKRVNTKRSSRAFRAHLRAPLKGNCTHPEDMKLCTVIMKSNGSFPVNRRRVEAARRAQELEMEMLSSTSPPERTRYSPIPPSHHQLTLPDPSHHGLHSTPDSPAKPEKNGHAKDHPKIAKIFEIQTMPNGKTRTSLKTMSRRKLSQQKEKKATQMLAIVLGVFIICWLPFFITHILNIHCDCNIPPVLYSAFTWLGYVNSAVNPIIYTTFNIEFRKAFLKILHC
- procedure.text: Displacement of [3H]methylspiperone from human D2L receptor stably expressed in CHO cells by Cheng-Prusoff equation analysis
- Format: cell-based
quantity.kind: Ki

Ki reading for `Cc1cc(C(F)(F)F)nc(Nc2ccccc2-c2nnn[nH]2)n1` : 16 µM

###

- experimental.system: Muscarinic acetylcholine receptor M2 (Homo sapiens, UniProt P08172)
- Sequence (P08172 whole entry): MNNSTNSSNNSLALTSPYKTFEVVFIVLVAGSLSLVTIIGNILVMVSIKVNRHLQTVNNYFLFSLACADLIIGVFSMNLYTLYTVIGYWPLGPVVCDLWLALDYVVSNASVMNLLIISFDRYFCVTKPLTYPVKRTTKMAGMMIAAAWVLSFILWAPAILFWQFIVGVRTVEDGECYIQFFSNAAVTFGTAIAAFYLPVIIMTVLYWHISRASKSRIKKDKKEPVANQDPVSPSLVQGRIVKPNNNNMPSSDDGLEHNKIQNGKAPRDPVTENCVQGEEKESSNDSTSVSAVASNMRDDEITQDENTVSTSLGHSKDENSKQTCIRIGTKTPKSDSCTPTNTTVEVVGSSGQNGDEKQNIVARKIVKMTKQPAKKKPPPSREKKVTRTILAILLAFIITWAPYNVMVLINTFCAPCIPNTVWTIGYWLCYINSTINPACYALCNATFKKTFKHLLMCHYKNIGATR
quantity.kind: pKi
The scale used: pKi is minus the common logarithm of the concentration in molar units.

pKi reading for `Cc1cc(C(F)(F)F)nc(Nc2ccccc2-c2nnn[nH]2)n1` : 5.64

###

Kindly state EC50 for each of the entries shown.
- experimental.system: Taste receptor type 2 member 14 (Homo sapiens)
- Sequence (Q9NYV8 whole entry): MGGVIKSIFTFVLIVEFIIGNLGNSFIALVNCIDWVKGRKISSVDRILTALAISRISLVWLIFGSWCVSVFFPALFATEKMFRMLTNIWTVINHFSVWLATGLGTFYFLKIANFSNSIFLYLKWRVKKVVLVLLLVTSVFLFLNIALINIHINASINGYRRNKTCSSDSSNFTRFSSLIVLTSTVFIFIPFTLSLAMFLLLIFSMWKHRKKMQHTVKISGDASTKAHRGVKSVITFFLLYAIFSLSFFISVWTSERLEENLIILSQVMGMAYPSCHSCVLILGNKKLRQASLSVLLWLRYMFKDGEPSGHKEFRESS
- procedure.text: Agonist activity at human TAS2R14 transfected in HEK293T cells assessed as IP1 accumulation measured after 150 mins by IP1 accumulation assay
- Type: cell-based
Just the number in nM, nothing appended.

Item `O=C(O)c1ccccc1Nc1cccc(S(F)(F)(F)(F)F)c1` ; assay system Taste receptor type 2 member 14 (Homo sapiens); EC50 reported as 190

Item `O=C(O)c1ccccc1Nc1cccc(C(F)(F)F)n1` ; assay system Taste receptor type 2 member 14 (Homo sapiens); EC50 reported as 670

Item `O=C(O)c1ccccc1Nc1cc(Br)cc(C(F)(F)F)c1` ; assay system Taste receptor type 2 member 14 (Homo sapiens); EC50 reported as 230

Item `FC(F)(F)c1nccc(Nc2ccccc2-c2nnn[nH]2)n1` ; assay system Taste receptor type 2 member 14 (Homo sapiens); EC50 reported as 1100

Item `C#Cc1cc(Nc2ccccc2C(=O)O)cc(C(F)(F)F)c1` ; assay system Taste receptor type 2 member 14 (Homo sapiens); EC50 reported as 150

Item `O=C(O)c1ccccc1Nc1cncc(C(F)(F)F)c1` ; assay system Taste receptor type 2 member 14 (Homo sapiens); EC50 reported as 1200

Item `FC(F)(F)c1cc(Nc2ccccc2-c2nnn[nH]2)ccn1` ; assay system Taste receptor type 2 member 14 (Homo sapiens); EC50 reported as 3500

Item `CC(C)(C)c1cc(C(F)(F)F)nc(Nc2ccccc2-c2nnn[nH]2)n1` ; assay system Taste receptor type 2 member 14 (Homo sapiens); EC50 reported as 640

Item `FC(F)(F)c1cc(Cl)nc(Nc2ccccc2-c2nnn[nH]2)n1` ; assay system Taste receptor type 2 member 14 (Homo sapiens); EC50 reported as 540

Item `N#Cc1cc(Nc2ccccc2C(=O)O)cc(C(F)(F)F)c1` ; assay system Taste receptor type 2 member 14 (Homo sapiens); EC50 reported as 180

Item `N#Cc1ccc(Nc2ccccc2C(=O)O)cc1C(F)(F)F` ; assay system Taste receptor type 2 member 14 (Homo sapiens); EC50 reported as 170

Item `CC#Cc1cc(Nc2ccccc2C(=O)O)cc(C(F)(F)F)c1` ; assay system Taste receptor type 2 member 14 (Homo sapiens); EC50 reported as 380
